# Species: Homo sapiens
# procedure_summary: Quantitative High-Throughput Screen for Compounds Blocking the Interaction Between CBF-beta and RUNX1 for the Treatment of Acute Myeloid Leukemia: Summary. [Related pubchem assays (depositor defined):AID1477, AID504370, AID504374, AID504375]
# Type: functional
quantity_measured: Potency

Some entries whose results are on file:
COC(=O)c1ccc(N=NNc2ccc(C(=O)OC)cc2)cc1 112 nM (active)
COc1cc([N+](=O)[O-])cc(/C=N/NC(=O)c2ccc(C)nc2)c1O 141 nM (active)
CCOc1ccc(CN(C)CC(=O)Nc2cc(C)c(C)cc2[N+](=O)[O-])cc1.CN(C)C=O 141 nM (active)

Next item in the queue.
Input: What value of Potency has been reported for the following molecule? COC(=O)c1ccc(C)c(-n2c(C)cc(C=O)c2C)c1
Output: 112 nM (active)

src = ChEMBL document CHEMBL1201862
